Parameter IC50: see the listing below.
Target: B-Raf V600E (Homo sapiens, UniProt P15056, V600E)
Sequence (P15056 whole entry V600E): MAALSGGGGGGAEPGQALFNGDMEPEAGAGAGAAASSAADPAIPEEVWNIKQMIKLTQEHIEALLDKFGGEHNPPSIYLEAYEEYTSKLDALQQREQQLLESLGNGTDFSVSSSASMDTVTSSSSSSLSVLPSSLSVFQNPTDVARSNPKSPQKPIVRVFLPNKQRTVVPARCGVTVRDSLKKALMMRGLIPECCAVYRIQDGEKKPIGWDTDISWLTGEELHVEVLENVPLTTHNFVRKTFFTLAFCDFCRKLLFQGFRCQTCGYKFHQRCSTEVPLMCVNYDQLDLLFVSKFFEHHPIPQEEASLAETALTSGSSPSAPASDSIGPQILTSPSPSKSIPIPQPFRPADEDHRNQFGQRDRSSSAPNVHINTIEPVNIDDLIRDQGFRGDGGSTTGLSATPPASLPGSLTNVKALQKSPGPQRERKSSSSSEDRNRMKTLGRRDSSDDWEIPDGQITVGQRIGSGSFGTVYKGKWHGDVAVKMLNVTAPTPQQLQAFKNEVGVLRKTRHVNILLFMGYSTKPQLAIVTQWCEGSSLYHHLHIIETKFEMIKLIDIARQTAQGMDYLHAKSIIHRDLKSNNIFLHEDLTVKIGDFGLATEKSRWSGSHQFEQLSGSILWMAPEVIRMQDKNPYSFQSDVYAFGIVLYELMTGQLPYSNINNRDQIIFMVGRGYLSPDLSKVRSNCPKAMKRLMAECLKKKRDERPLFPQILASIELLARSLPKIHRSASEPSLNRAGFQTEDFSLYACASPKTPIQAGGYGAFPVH
Assay: B-Raf V600E kinase activity assay (AlphaScreen, biotin-MEK1 substrate)
Settings: 100 μM ATP, 100 nM biotin-MEK1, 45 minutes at room temperature, read-out: Biochemical activity (IC50 μM) V600E
METRIC NAME: IC50

# COMPOUND, METRIC NAME, OBS VALUE
rows = [
    ("O=C(c1c(F)ccc(NS(=O)(=O)c2ccc(C(F)(F)F)cc2)c1F)c1c[nH]c2ncc(-c3cnn(C4CCNCC4)c3)cc12 [P-1004]", "IC50", "< 0.1 µM"),
    ("COc1ncc(-c2cnc3[nH]cc(C(=O)c4c(F)ccc(NS(=O)(=O)c5cc(F)ccc5F)c4F)c3c2)c(OC)n1 [P-1501]", "IC50", "< 0.1 µM"),
    ("Cc1cc(-c2cnc3[nH]cc(C(=O)c4c(F)ccc(NS(=O)(=O)c5cc(F)ccc5F)c4F)c3c2)n(C)n1 [P-1010]", "IC50", "< 0.1 µM"),
    ("CCCS(=O)(=O)Nc1ccc(F)c(C(=O)c2c[nH]c3ncc(-c4cnc(-n5ccnc5)s4)cc23)c1F [P-1104]", "IC50", "< 0.1 µM"),
    ("CCCS(=O)(=O)Nc1ccc(F)c(C(=O)c2c[nH]c3ncc(-c4ccc5c(c4)CC(=O)N5)cc23)c1F [P-1703]", "IC50", "< 0.1 µM"),
    ("CCCS(=O)(=O)Nc1ccc(F)c(C(=O)c2c[nH]c3ncc(-c4cccc5[nH]ccc45)cc23)c1F [P-0019]", "IC50", "< 0.1 µM"),
    ("CCCS(=O)(=O)Nc1ccc(F)c(C(=O)c2c[nH]c3ncc(-c4c(C)nn(-c5nnn[nH]5)c4C)cc23)c1F [P-1006]", "IC50", "< 0.1 µM"),
]

* * *

Parameter IC50: see the listing below.
Molecular target: c-Raf-1 (Homo sapiens)
Sequence (P04049 whole entry Y340D/Y341D, form open): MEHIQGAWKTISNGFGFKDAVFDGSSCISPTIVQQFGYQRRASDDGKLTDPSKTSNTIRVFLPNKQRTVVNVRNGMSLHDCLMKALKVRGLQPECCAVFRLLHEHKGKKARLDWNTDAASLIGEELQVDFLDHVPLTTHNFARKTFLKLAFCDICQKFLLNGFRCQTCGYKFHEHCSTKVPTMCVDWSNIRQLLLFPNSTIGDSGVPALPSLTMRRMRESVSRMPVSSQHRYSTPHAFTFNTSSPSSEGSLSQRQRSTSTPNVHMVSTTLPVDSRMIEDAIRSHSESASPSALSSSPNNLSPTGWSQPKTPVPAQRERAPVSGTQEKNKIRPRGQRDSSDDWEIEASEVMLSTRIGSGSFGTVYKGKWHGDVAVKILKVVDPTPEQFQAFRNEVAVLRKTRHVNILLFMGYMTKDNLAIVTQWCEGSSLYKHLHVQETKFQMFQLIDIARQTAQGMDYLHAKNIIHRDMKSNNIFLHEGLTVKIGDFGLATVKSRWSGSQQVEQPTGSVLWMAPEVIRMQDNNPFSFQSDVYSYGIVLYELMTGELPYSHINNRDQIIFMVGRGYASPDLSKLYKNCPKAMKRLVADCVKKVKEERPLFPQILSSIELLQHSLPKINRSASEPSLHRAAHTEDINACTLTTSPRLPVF
Assay: c-Raf-1 kinase activity assay (AlphaScreen, biotin-MEK1 substrate)
Settings: 100 μM ATP, 100 nM biotin-MEK1, 45 minutes at room temperature; read-out: Biochemical activity (IC50 μM) c-Raf-1

# SMILES STRUCTURE, IC50
data = [
    ("Cn1cc(-c2cnc3[nH]cc(C(=O)c4c(F)ccc(NS(=O)(=O)c5cc(F)ccc5F)c4F)c3c2)cn1", "< 0.1 µM"),
    ("CCCS(=O)(=O)Nc1ccc(F)c(C(=O)c2c[nH]c3ncc(-c4cn5ccccc5n4)cc23)c1F", "< 0.1 µM"),
    ("O=C(c1c(F)ccc(NS(=O)(=O)c2cc(F)ccc2F)c1F)c1c[nH]c2ncc(-c3ccncc3)cc12", "< 0.1 µM"),
    ("CCCS(=O)(=O)Nc1ccc(F)c(C(=O)c2c[nH]c3ncc(-c4cnc(-n5cccn5)cn4)cc23)c1F", "< 0.1 µM"),
    ("CCCS(=O)(=O)Nc1ccc(F)c(C(=O)c2c[nH]c3ncc(-c4cnc(-n5ccnc5)cn4)cc23)c1F", "< 0.1 µM"),
    ("Cn1ccc(-c2cnc3[nH]cc(C(=O)c4c(F)ccc(NS(=O)(=O)c5cc(F)ccc5F)c4F)c3c2)n1", "< 0.1 µM"),
    ("CC(=O)N(c1ccc(F)c(C(=O)c2cn(C(C)=O)c3ncc(-c4ccc5c(cnn5C(C)=O)c4)cc23)c1F)S(=O)(=O)c1cc(F)ccc1F", "< 0.1 µM"),
    ("CCCS(=O)(=O)Nc1ccc(F)c(C(=O)c2c[nH]c3ncc(-c4ccc5cn(C)nc5c4)cc23)c1F", "< 0.1 µM"),
    ("CCCS(=O)(=O)Nc1ccc(F)c(C(=O)c2c[nH]c3ncc(-c4ccc(Cl)c(C(N)=O)c4)cc23)c1F", "< 0.1 µM"),
    ("CCCS(=O)(=O)Nc1ccc(F)c(C(=O)c2c[nH]c3ncc(-c4csc(-n5ccnc5C)n4)cc23)c1F", "< 0.1 µM"),
    ("COc1ccc(-c2cnc3[nH]cc(C(=O)c4c(F)ccc(NS(=O)(=O)c5cc(F)ccc5F)c4F)c3c2)cn1", "< 0.1 µM"),
    ("CCCS(=O)(=O)Nc1ccc(F)c(C(=O)c2c[nH]c3ncc(-c4ccc5c(c4)C(=O)NC5)cc23)c1F", "< 0.1 µM"),
    ("O=C(c1c(F)ccc(NS(=O)(=O)c2cc(F)ccc2F)c1F)c1c[nH]c2ncc(-c3ccc4[nH]ncc4c3)cc12", "< 0.1 µM"),
    ("CCCS(=O)(=O)Nc1ccc(F)c(C(=O)c2c[nH]c3ncc(-c4csc(-n5ccnc5)n4)cc23)c1F", "< 0.1 µM"),
    ("Cc1ccc(-c2cnc3[nH]cc(C(=O)c4c(F)ccc(NS(=O)(=O)c5cc(F)ccc5F)c4F)c3c2)cn1", "< 0.1 µM"),
]

* * *

Molecular target: CYP3A4(BFC) (Homo sapiens, UniProt P08684)
Sequence (P08684 whole entry): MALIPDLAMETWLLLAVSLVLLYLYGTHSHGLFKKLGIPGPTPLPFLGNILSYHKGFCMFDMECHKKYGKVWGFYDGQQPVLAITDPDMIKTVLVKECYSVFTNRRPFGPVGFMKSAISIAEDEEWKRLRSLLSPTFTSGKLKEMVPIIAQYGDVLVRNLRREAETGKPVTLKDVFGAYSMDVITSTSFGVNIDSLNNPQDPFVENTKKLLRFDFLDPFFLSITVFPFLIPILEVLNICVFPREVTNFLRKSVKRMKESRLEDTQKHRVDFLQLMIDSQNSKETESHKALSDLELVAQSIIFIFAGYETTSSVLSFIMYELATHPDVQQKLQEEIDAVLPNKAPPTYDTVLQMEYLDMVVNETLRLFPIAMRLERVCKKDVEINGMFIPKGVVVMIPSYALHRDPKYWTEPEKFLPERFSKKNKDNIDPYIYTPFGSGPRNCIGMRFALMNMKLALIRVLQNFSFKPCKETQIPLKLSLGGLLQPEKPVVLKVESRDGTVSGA
Experiment: CYP3A4 inhibition (substrate BFC)
Assay type: in vitro ADME
Conditions: read-out: Cyp IC50 (μM) 3A4(BFC)
Parameter IC50: see the listing below.

# COMPOUND, IC50
records = [
    ("COc1ccc(-c2cnc3[nH]cc(C(=O)c4c(F)ccc(NS(=O)(=O)c5cc(F)ccc5F)c4F)c3c2)cn1 [P-1404]", "> 10 µM"),
    ("CCCS(=O)(=O)Nc1ccc(F)c(C(=O)c2c[nH]c3ncc(-c4cccc5nn(C)cc45)cc23)c1F [P-0015]", "> 10 µM"),
    ("O=C(c1c(F)ccc(NS(=O)(=O)c2cc(F)ccc2F)c1F)c1c[nH]c2ncc(-c3cnc(NC4CC4)nc3)cc12 [P-1506]", "< 5 µM"),
    ("CCCS(=O)(=O)Nc1ccc(F)c(C(=O)c2c[nH]c3ncc(-c4ccc5[nH]ccc5c4)cc23)c1F [P-0012]", "5 to 10 µM"),
    ("CCCS(=O)(=O)Nc1ccc(F)c(C(=O)c2c[nH]c3ncc(-c4ccc5[nH]ncc5c4)cc23)c1F [P-0001]", "> 10 µM"),
    ("CCCS(=O)(=O)Nc1ccc(F)c(C(=O)c2c[nH]c3ncc(-c4ccc5cn(C)nc5c4)cc23)c1F [P-0011]", "> 10 µM"),
    ("CCCS(=O)(=O)Nc1ccc(F)c(C(=O)c2c[nH]c3ncc(-c4ccc5ncsc5c4)cc23)c1F [P-0020]", "> 10 µM"),
]

* * *

Target: B-Raf (Homo sapiens)
Sequence (P15056 whole entry): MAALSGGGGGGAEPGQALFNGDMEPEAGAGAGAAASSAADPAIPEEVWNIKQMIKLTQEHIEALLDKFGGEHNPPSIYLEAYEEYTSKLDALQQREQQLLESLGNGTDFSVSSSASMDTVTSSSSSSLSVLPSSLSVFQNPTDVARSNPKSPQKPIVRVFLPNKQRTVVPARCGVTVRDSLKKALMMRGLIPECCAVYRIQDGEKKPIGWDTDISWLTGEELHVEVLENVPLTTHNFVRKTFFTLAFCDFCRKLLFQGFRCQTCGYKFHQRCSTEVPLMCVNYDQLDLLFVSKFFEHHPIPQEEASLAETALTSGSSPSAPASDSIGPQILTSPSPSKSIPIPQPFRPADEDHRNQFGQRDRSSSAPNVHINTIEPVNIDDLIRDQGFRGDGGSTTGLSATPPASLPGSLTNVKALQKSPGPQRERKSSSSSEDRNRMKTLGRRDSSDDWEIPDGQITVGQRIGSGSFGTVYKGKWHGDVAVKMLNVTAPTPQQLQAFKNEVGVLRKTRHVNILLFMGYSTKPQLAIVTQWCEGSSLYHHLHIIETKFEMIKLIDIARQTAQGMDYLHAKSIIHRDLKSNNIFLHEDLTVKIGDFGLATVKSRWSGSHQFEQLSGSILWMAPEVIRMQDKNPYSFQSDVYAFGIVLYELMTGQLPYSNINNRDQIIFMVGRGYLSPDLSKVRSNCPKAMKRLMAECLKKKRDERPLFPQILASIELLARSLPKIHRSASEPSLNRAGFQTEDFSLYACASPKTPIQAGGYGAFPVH
Test: B-Raf kinase activity assay (AlphaScreen, biotin-MEK1 substrate)
Details: 100 μM ATP, 100 nM biotin-MEK1, 45 minutes at room temperature; read-out: Biochemical activity (IC50 μM) B-Raf

# MOLECULE, IC50
rows = [
    ("CCCS(=O)(=O)Nc1ccc(F)c(C(=O)c2c[nH]c3ncc(-c4cn5ccccc5n4)cc23)c1F", "< 0.1 µM"),
    ("COc1ncc(-c2cnc3[nH]cc(C(=O)c4c(F)ccc(NS(=O)(=O)c5cc(F)ccc5F)c4F)c3c2)c(OC)n1", "< 0.1 µM"),
    ("CCCS(=O)(=O)Nc1ccc(F)c(C(=O)c2c[nH]c3ncc(-c4cnn(-c5nnn[nH]5)c4)cc23)c1F", "< 0.1 µM"),
    ("O=C(c1c(F)ccc(NS(=O)(=O)c2cc(F)ccc2F)c1F)c1c[nH]c2ncc(-c3ccncc3)cc12", "< 0.1 µM"),
    ("CCCS(=O)(=O)Nc1ccc(F)c(C(=O)c2c[nH]c3ncc(-c4cnn(C5CCNCC5)c4)cc23)c1F", "< 0.1 µM"),
    ("CCCS(=O)(=O)Nc1ccc(F)c(C(=O)c2c[nH]c3ncc(-c4ccccn4)cc23)c1F", "< 0.1 µM"),
    ("CCCS(=O)(=O)Nc1ccc(F)c(C(=O)c2c[nH]c3ncc(-c4cnc(-n5ccnc5)s4)cc23)c1F", "< 0.1 µM"),
    ("CCCS(=O)(=O)Nc1ccc(F)c(C(=O)c2c[nH]c3ncc(-c4cnc(-n5ccccc5=O)cn4)cc23)c1F", "< 0.1 µM"),
    ("CN(C)c1ncc(-c2cnc3[nH]cc(C(=O)c4c(F)ccc(NS(=O)(=O)c5cc(F)ccc5F)c4F)c3c2)cn1", "< 0.1 µM"),
    ("CCCS(=O)(=O)Nc1ccc(F)c(C(=O)c2c[nH]c3ncc(-c4csc(-n5ccnc5C)n4)cc23)c1F", "< 0.1 µM"),
    ("CCCS(=O)(=O)Nc1ccc(F)c(C(=O)c2c[nH]c3ncc(-c4csc(-n5cnc(C)c5)n4)cc23)c1F", "< 0.1 µM"),
    ("CCCS(=O)(=O)Nc1ccc(F)c(C(=O)c2c[nH]c3ncc(-c4ccc5cncnc5c4)cc23)c1F", "< 0.1 µM"),
    ("Cc1cc(-c2cnc3[nH]cc(C(=O)c4c(F)ccc(NS(=O)(=O)c5cc(F)ccc5F)c4F)c3c2)n(C)n1", "< 0.1 µM"),
    ("CCCS(=O)(=O)Nc1ccc(F)c(C(=O)c2c[nH]c3ncc(-c4cccc5[nH]ncc45)cc23)c1F", "< 1 µM"),
    ("CCCS(=O)(=O)Nc1ccc(F)c(C(=O)c2c[nH]c3ncc(-c4c(C)nn(-c5nnn[nH]5)c4C)cc23)c1F", "< 0.1 µM"),
    ("CCCS(=O)(=O)Nc1ccc(F)c(C(=O)c2c[nH]c3ncc(-c4cccc5nccn45)cc23)c1F", "< 0.1 µM"),
    ("CCCS(=O)(=O)Nc1ccc(F)c(C(=O)c2c[nH]c3ncc(NC(=O)C4C=C(C)ON4)cc23)c1F (stereo not shown)", "< 1 µM"),
    ("CCCS(=O)(=O)Nc1ccc(F)c(C(=O)c2c[nH]c3ncc(-c4ccc5scnc5c4)cc23)c1F", "< 0.1 µM"),
    ("CCCS(=O)(=O)Nc1ccc(F)c(C(=O)c2c[nH]c3ncc(-c4c(C)nn(S(=O)(=O)c5cn(C)nc5C)c4C)cc23)c1F", "< 0.1 µM"),
    ("CC(C)(C)OC(=O)N1CCC(n2cc(-c3cnc4[nH]cc(C(=O)c5c(F)ccc(NS(=O)(=O)c6ccc(C(F)(F)F)cc6)c5F)c4c3)cn2)CC1", "< 0.1 µM"),
    ("CCCS(=O)(=O)Nc1ccc(F)c(C(=O)c2c[nH]c3ncc(-c4cnc(-n5ccnc5C)s4)cc23)c1F", "< 0.1 µM"),
    ("CN(C)c1ccc(-c2cnc3[nH]cc(C(=O)c4c(F)ccc(NS(=O)(=O)c5cc(F)ccc5F)c4F)c3c2)cn1", "< 0.1 µM"),
    ("Cc1ccc(-c2cnc3[nH]cc(C(=O)c4c(F)ccc(NS(=O)(=O)c5cc(F)ccc5F)c4F)c3c2)cn1", "< 0.1 µM"),
    ("Cn1ccc(-c2cnc3[nH]cc(C(=O)c4c(F)ccc(NS(=O)(=O)c5cc(F)ccc5F)c4F)c3c2)n1", "< 0.1 µM"),
    ("O=C(c1c(F)ccc(NS(=O)(=O)c2ccc(C(F)(F)F)cc2)c1F)c1c[nH]c2ncc(-c3cnn(C4CCNCC4)c3)cc12", "< 0.1 µM"),
    ("CCCS(=O)(=O)Nc1ccc(F)c(C(=O)c2c[nH]c3ncc(-c4ccc5[nH]cc(C)c5c4)cc23)c1F", "< 0.1 µM"),
    ("CCCS(=O)(=O)Nc1ccc(F)c(C(=O)c2c[nH]c3ncc(-c4ccc5[nH]nc(C)c5c4)cc23)c1F", "< 0.1 µM"),
    ("CCCS(=O)(=O)Nc1ccc(F)c(C(=O)c2c[nH]c3ncc(-c4ccc5c(cnn5S(C)(=O)=O)c4)cc23)c1F", "< 0.1 µM"),
    ("CCCS(=O)(=O)Nc1ccc(F)c(C(=O)c2c[nH]c3ncc(-c4ccc5nn(C)cc5c4)cc23)c1F", "< 0.1 µM"),
    ("CCCS(=O)(=O)Nc1ccc(F)c(C(=O)c2c[nH]c3ncc(-c4cnc(-n5cccn5)cn4)cc23)c1F", "< 0.1 µM"),
    ("CCCS(=O)(=O)Nc1ccc(F)c(C(=O)c2c[nH]c3ncc(NC(=O)c4cccnc4)cc23)c1F", "< 1 µM"),
]
